# tested_on: ovine COX-1 (oCOX-1) (Ovis aries, UniProt P05979)
# Construct: purchased Cayman Chemicals (Ann Arbor, Mich.)
# Sequence (P05979 25-600): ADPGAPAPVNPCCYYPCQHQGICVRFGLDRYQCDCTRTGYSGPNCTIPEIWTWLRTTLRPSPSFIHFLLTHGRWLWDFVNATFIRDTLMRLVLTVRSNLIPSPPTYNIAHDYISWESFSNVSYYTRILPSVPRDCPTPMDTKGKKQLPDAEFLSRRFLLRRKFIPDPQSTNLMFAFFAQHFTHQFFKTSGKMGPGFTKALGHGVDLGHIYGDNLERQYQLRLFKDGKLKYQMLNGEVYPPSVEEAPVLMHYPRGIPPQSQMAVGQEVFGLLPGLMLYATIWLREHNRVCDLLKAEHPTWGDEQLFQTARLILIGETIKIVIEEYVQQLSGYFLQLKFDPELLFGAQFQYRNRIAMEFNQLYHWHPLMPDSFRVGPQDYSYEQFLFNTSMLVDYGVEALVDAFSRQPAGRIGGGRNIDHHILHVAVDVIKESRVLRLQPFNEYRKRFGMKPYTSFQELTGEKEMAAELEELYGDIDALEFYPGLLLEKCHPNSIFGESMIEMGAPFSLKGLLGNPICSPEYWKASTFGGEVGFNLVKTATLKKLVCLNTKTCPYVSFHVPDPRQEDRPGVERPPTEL
# measurement_protocol: LCMS-based COX-1 enzymatic inhibition assay (PGE2 quantification)
# Format: biochemical
# details: 10 minutes; readout pge2 area (counts); average LLE
# COX1 10 minutes pge2 area (counts) Avg. LLE values compiled below
measurement_kind: COX1 10 minutes pge2 area (counts) Avg. LLE

>>> observed_result("CN(Cc1cccs1)c1cncc(-c2ccc(S(C)(=O)=O)cc2)n1")
3.234
>>> observed_result("CSc1ccc(NCc2cccs2)nc1-c1ccc(S(C)(=O)=O)cc1")
0.214
>>> observed_result("CCOc1ncc(NCc2cccs2)nc1-c1ccc(S(C)(=O)=O)cc1")
1.374

====

# tested_on: human recombinant COX2 (hCOX2) (UniProt P35354)
# measurement_protocol: LCMS-based COX2 enzymatic inhibition assay (PGE2 quantification)
# Type: biochemical
# Set-up: COX2 2 minutes pge2/pge2d4 area ratio Avg; other: 2 minutes; readout pge2/pge2d4 area ratio; average; COX2 2 minutes pge2/pge2d4 area ratio Avg; LLE; average LLE; COX2 2 minutes pge2 area (counts) Avg; readout pge2 area (counts); other: 2 min; "ovine COX2 (oCOX2), human recombinant COX2 (hCOX2)"
# details: 2 minutes; readout pge2 area (counts); average; read-out: COX2 2 minutes pge2 area (counts) Avg. IC50
pIC50: −log10 of the molar value.
# cutoff 7 applies to pIC50; >= gives label 1, < gives label 0

>>> cat("Cc1csc(COc2cncc(-c3ccc(S(C)(=O)=O)cc3)n2)c1")
"label 1"
>>> cat("CS(=O)(=O)c1ccc(-c2cncc(SCc3cnoc3)n2)cc1")
"label 0"
>>> cat("COc1ncc(-c2ccc(S(C)(=O)=O)cc2)nc1NCc1ccccn1")
"label 0"
>>> cat("Cc1ccsc1CNc1cccc(-c2ccc(S(C)(=O)=O)cc2)n1")
"label 1"
>>> cat("CS(=O)(=O)c1ccc(-c2cccc(NCc3ccon3)n2)cc1")
"label 0"
>>> cat("CN(C)c1cncc(-c2ccc(S(C)(=O)=O)cc2)n1")
"label 0"

====

# tested_on: human recombinant COX2 (hCOX2) (UniProt P35354)
# measurement_protocol: LCMS-based COX2 enzymatic inhibition assay (PGE2 quantification)
# Format: biochemical
# Parameters: COX2 2 minutes pge2/pge2d4 area ratio Avg; other: 2 minutes; readout pge2/pge2d4 area ratio; average; COX2 2 minutes pge2/pge2d4 area ratio Avg; LLE; average LLE; COX2 2 minutes pge2 area (counts) Avg; readout pge2 area (counts); other: 2 min; "ovine COX2 (oCOX2), human recombinant COX2 (hCOX2)"
# details: 2 minutes; readout pge2/pge2d4 area ratio; average; read-out: COX2 2 minutes pge2/pge2d4 area ratio Avg. IC50
pIC50: −log10 of the molar value.
# pIC50 values compiled below
measurement_kind: pIC50

>>> observed_result("COc1cc(-c2ccc(S(C)(=O)=O)cc2)cc(NCc2cccs2)n1")
7.59
>>> observed_result("Cn1cc(CNc2cncc(-c3ccc(S(C)(=O)=O)cc3)n2)cn1")
5.59
>>> observed_result("CS(=O)(=O)c1ccc(-c2cccc(/C=C\\c3cccs3)n2)cc1")
7.72
>>> observed_result("CS(=O)(=O)c1ccc(-c2cncc(SCc3ncco3)n2)cc1")
5.81
>>> observed_result("CS(=O)(=O)c1ccc(-c2cncc(NC[C@H]3CCCS3)n2)cc1 (single isomer, unassigned)")
6.40
>>> observed_result("CS(=O)(=O)c1ccc(-c2cncc(OCc3ccns3)n2)cc1")
6.52
>>> observed_result("CS(=O)(=O)c1ccc(-c2ccc(F)c(NCc3ccco3)n2)cc1")
8.05
>>> observed_result("CS(=O)(=O)c1ccc(-c2cc(OCc3cccs3)cnn2)cc1")
5.61
>>> observed_result("COc1ccc(NCc2cccs2)nc1-c1ccc(S(C)(=O)=O)nc1")
7.20
>>> observed_result("CS(=O)(=O)c1ccc(-c2cccc(/C=C/c3ccoc3)n2)cc1")
5.47
>>> observed_result("COc1ncc(NCc2cccs2)nc1-c1ccc(S(C)(=O)=O)cn1")
6.84
>>> observed_result("CS(=O)(=O)c1ccc(-c2cnnc(NCc3cccs3)n2)cc1")
6.98
>>> observed_result("COc1cc(S(C)(=O)=O)ccc1-c1cccc(NCc2cccs2)n1")
5.38
>>> observed_result("CS(=O)(=O)c1ccc(-n2ccc3ccc(Nc4ccccc4)nc32)cc1")
7.38
>>> observed_result("Cc1ncc(-c2ccc(S(C)(=O)=O)cc2)nc1OCc1cccs1")
7.73
>>> observed_result("CS(=O)(=O)c1ccc(-n2ncc3ccc(NCc4cccs4)nc32)cc1")
7.16
>>> observed_result("COc1ccc(NCc2ccoc2)nc1-c1ccc(S(C)(=O)=O)cc1")
7.43
>>> observed_result("CS(=O)(=O)c1ccc(-c2cncc(NCc3cccs3)n2)nc1")
6.84
>>> observed_result("Cn1ccc(COc2cncc(-c3ccc(S(C)(=O)=O)cc3)n2)n1")
6.25
>>> observed_result("CS(=O)(=O)c1ccc(-c2cncc(SCc3ccoc3)n2)cc1")
8.07
>>> observed_result("CS(=O)(=O)c1ccc(-n2nnc3ccc(NCc4cccs4)nc32)cc1")
6.68
>>> observed_result("COc1ncc(NCc2ccccc2)nc1-c1ccc(S(C)(=O)=O)cc1")
7.65
>>> observed_result("CS(=O)(=O)c1ccc(-c2nc(NCc3cccs3)cnc2C#N)cc1")
6.44
>>> observed_result("Cc1ccoc1CNc1cccc(-c2ccc(S(C)(=O)=O)cc2)n1")
7.16
>>> observed_result("CS(=O)(=O)c1ccc(-c2ncc3ccn(Cc4cccs4)c3n2)cc1")
7.39
>>> observed_result("CS(=O)(=O)c1ccc(-c2cc(F)cc(NCc3ccco3)n2)cc1")
8.05
>>> observed_result("CS(=O)(=O)c1ccc(-c2cc3ccoc3c(NCc3cccs3)n2)cc1")
7.41

====

# tested_on: human recombinant COX2 (hCOX2)
# Sequence (P35354 1-604): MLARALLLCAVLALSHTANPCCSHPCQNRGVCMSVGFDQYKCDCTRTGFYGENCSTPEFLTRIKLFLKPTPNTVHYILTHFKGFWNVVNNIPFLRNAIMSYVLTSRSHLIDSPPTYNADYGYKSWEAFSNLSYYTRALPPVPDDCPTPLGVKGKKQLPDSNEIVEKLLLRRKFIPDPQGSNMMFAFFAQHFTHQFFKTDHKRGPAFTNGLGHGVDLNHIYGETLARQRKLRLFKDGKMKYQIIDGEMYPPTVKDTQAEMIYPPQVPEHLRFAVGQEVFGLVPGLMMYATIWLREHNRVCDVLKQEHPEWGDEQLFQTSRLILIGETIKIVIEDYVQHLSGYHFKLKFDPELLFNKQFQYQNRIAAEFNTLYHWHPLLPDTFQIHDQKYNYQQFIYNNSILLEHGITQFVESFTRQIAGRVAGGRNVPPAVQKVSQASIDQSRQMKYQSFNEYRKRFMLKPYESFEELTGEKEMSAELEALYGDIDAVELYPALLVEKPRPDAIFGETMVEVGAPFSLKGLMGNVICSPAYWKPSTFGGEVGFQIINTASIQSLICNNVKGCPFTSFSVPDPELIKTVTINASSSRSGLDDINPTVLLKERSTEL
# measurement_protocol: LCMS-based COX2 enzymatic inhibition assay (PGE2 quantification)
# Assay type: biochemical
# Parameters: COX2 2 minutes pge2/pge2d4 area ratio Avg; other: 2 minutes; readout pge2/pge2d4 area ratio; average; COX2 2 minutes pge2/pge2d4 area ratio Avg; LLE; average LLE; COX2 2 minutes pge2 area (counts) Avg; readout pge2 area (counts); other: 2 min; "ovine COX2 (oCOX2), human recombinant COX2 (hCOX2)"
# details: 10 minutes; readout pge2 area (counts); average LLE
measurement_kind: COX2 10 minutes pge2 area (counts) Avg. LLE

>>> observed_result("COc1cncc(-c2ccc(S(C)(=O)=O)cc2)n1 [Compound 299]")
5.551
>>> observed_result("CS(=O)(=O)c1ccc(-c2cnc3ncn(Cc4cccs4)c3n2)cc1 [Compound 210]")
3.939
>>> observed_result("CS(=O)(=O)c1ccc(-c2cncc(N3CCOCC3)n2)cc1 [Compound 286]")
5.772
>>> observed_result("CS(=O)(=O)c1ccc(-c2cncc(NCc3ccc(F)cc3)n2)cc1 [Compound 96]")
5.83
>>> observed_result("CS(=O)(=O)c1ccc(-c2cncc(OCc3cccs3)n2)cc1 [Compound 19]")
6.3861
>>> observed_result("COc1nc(NCc2cccs2)cc(-c2ccc(S(C)(=O)=O)cc2)n1 [Compound 156]")
4.189
>>> observed_result("COc1cc(NCc2cccs2)nc(-c2ccc(S(C)(=O)=O)cc2)c1 [Compound 50]")
4.996
>>> observed_result("CN1CCN(c2cncc(-c3ccc(S(C)(=O)=O)cc3)n2)CC1 [Compound 287]")
5.574

====

# tested_on: human recombinant COX2 (hCOX2) (UniProt P35354)
# Sequence (P35354 1-604): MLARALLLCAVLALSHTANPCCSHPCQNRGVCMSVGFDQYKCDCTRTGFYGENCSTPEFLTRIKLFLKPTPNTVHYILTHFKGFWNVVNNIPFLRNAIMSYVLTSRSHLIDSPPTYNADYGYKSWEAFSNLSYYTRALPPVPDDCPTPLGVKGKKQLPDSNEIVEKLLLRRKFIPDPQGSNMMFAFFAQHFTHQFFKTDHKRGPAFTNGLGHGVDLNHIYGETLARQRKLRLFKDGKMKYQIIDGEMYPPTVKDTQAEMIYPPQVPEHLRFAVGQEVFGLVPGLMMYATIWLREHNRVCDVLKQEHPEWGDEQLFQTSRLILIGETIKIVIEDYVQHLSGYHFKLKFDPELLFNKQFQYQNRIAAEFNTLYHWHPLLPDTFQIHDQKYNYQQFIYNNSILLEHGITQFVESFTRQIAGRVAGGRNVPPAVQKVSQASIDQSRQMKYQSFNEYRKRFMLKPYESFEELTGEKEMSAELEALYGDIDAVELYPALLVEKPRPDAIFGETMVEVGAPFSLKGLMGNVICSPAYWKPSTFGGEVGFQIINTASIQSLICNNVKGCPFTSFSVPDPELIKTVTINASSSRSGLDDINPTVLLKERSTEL
# measurement_protocol: LCMS-based COX2 enzymatic inhibition assay (PGE2 quantification)
# Assay type: biochemical
# Set-up: COX2 2 minutes pge2/pge2d4 area ratio Avg; other: 2 minutes; readout pge2/pge2d4 area ratio; average; COX2 2 minutes pge2/pge2d4 area ratio Avg; LLE; average LLE; COX2 2 minutes pge2 area (counts) Avg; readout pge2 area (counts); other: 2 min; "ovine COX2 (oCOX2), human recombinant COX2 (hCOX2)"
# details: 2 minutes; readout pge2/pge2d4 area ratio; average LLE
Just so you know, the groups by COX2 2 minutes pge2/pge2d4 area ratio Avg. LLE go like this: low (below 4), mid (4 to below 5), high (5 or more)

>>> cat("COc1ncc(NCc2ccco2)nc1-c1ccc(S(C)(=O)=O)cc1")
"high"
>>> cat("CS(=O)(=O)c1ccc(-c2cncc(SCc3ncco3)n2)cc1")
"low"
>>> cat("CS(=O)(=O)c1ccc(-c2cccc(OCc3ccco3)n2)cc1")
"mid"
>>> cat("CS(=O)(=O)c1ccc(-c2cccc(NCc3cc[nH]c3)n2)cc1")
"low"
>>> cat("COc1ncc(OCc2cccs2)nc1-c1ccc(S(C)(=O)=O)cc1")
"high"
>>> cat("CS(=O)(=O)c1ccc(-c2cncc(Oc3ccc(F)cc3)n2)cc1")
"low"
>>> cat("COc1ncc(NCc2cccs2)nc1-c1ccc(S(C)(=O)=O)cn1")
"high"
>>> cat("CS(=O)(=O)c1ccc(-c2cncc(/C=C\\c3cccs3)n2)cc1")
"mid"
>>> cat("COc1cc(S(C)(=O)=O)ccc1-c1cncc(NCc2ccoc2)n1")
"low"
>>> cat("CN(Cc1cccs1)c1cncc(-c2ccc(S(C)(=O)=O)cc2)n1")
"high"
